Origin of values: patent US20080057063A1

- System under test: T1, human αVβ6 integrin on cells (human, UniProt P06756 31-1048; P18564 22-788)
- T1 construct: whole, on cells; Heterodimer on transfected cells (HEK 293, K562, 293T) or on αVβ6-positive tumour lines (HT29, Detroit-562); also called αVβ6 on HEK 293, K562, 293T-αVβ6, HT29, Detroit-562 cells
- T1 sequence (P06756 31-1048, chain 1 of 2): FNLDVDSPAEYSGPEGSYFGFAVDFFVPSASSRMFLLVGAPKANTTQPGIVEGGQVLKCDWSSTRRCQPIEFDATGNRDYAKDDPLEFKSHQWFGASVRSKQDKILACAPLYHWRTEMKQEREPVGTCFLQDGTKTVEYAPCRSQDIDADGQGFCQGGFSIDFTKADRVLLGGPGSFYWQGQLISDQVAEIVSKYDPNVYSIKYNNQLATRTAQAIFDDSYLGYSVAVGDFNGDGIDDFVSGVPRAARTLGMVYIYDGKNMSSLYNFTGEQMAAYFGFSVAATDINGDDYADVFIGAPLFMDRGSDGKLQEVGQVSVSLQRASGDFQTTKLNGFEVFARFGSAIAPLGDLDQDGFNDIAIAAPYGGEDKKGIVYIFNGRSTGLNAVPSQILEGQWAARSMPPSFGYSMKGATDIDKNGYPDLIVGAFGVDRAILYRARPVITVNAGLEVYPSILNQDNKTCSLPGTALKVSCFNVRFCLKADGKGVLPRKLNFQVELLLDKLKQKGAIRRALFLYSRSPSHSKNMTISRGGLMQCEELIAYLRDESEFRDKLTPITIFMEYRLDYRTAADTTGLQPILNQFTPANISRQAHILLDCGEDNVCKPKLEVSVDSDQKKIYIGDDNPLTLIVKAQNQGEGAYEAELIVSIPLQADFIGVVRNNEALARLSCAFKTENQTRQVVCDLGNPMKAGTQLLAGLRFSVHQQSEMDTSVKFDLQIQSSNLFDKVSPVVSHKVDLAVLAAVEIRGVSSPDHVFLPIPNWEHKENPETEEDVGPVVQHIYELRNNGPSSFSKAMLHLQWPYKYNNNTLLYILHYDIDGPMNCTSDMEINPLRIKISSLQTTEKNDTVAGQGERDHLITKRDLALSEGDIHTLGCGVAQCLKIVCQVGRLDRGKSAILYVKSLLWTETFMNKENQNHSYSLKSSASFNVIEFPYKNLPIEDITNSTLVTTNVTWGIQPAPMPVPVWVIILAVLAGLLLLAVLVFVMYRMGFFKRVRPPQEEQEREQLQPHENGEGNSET
- T1 sequence (P18564 22-788, chain 2 of 2): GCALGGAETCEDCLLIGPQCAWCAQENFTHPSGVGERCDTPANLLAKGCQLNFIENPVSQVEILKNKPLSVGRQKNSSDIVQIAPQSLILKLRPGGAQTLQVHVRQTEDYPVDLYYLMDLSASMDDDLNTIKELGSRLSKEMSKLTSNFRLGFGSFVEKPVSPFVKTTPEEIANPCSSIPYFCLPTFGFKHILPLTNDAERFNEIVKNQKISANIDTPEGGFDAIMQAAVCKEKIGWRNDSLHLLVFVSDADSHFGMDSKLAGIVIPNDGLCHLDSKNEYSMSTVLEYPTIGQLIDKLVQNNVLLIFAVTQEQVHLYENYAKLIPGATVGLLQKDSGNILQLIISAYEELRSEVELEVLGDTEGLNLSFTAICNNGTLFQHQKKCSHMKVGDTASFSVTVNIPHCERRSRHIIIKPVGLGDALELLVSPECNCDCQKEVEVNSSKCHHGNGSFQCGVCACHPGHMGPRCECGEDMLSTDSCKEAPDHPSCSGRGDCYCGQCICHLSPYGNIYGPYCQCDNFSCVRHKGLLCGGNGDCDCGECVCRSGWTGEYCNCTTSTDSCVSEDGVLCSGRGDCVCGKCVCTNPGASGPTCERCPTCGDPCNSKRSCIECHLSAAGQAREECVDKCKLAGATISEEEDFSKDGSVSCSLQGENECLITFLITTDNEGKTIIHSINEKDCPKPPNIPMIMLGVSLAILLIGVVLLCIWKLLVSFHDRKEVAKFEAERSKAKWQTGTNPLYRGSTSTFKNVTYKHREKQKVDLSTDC
- Test description: FMAT, HEK 293 cells overexpressing αVβ6, supernatant

| Binder | FMAT Count |
| --- | --- |
| sc 277 (antibody, V domains shown) VH: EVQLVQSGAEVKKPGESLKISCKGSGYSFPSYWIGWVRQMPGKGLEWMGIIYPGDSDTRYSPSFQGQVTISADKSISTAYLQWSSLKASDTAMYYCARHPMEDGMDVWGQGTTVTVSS VL: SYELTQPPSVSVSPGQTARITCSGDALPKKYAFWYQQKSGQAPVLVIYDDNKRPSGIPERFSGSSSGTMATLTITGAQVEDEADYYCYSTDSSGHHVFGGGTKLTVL | 28 |
